- ASSAY TARGET: Pan-species-specific antigen Plasmodium Lactate DeHydrogenase (Pan-PLDH) protein
- PROTOCOL DESCRIPTION: indirect ELISA at four coating concentrations, KD calculated from half-maximal OD
REPORTED ENDPOINT: Kd (nM)
Reply with just the number (in nM).

Inquiry: Supply Kd value. Item: Mutation 1-6 (antibody, mouse IgG2b, kappa, V domains shown) VH: QVQLQQPGAELVRPGASVKLSCKASGTSFTNYWMNWVKQRPGQGLEWIGMIHPSDSETRINQKFKDKATLTVDKSSSTAYMQLSSLTAEDSAVYYCARSGDFYTSYFDYWGQGTTLTVSS VL: DIQLTQSPASLSASVGETVTITCRGTGNIHNYLAWYQQKQGKSPQLLVYNAKTLADGVPSRFSGSGSGTQYSLKINSLQPEDFGSYYCQTFWSTYTFGGGTKLEIKR
Reply text: 0.664

Inquiry: Supply Kd value. Item: Mutation 1-18 (antibody, mouse IgG2b, kappa, V domains shown) VH: QVQLQQPGAELVRPGASVKLSCKASGTSFTNYWMNWVKQRPGQGLEWIGMIHPSDSETRINQKFKDKATLTVDKSSSTAYMQLSSLTAEDSAVYYCARSGDFYTSYFDYWGQGTTLTVSS VL: DIQLTQSPASLSASVGETVTITCRGTGNIHNYLAWYQQKQGKSPQLLVYNAKTIADGVPSRFSGSGSGTQYSLKINSLQPEDFGSYYCQSFWSTYTFGGGTKLEIKR
Reply text: 0.567

Inquiry: Supply Kd value. Item: Mutation 1-1 (antibody, mouse IgG2b, kappa, V domains shown) VH: QVQLQQPGAELVRPGASVKLSCKASGYSFTNYWMNWVKQRPGQGLEWIGMIHPSESETRLNQKFKDKATLTVDKSSSTAYMQLSSLTAEDSAVYYCAKSGDFYTYYFDYWGQGTTLTVSS VL: DIQLTQSPASLSASVGETVTITCRGTGNLHNYLAWYQQKQGKSPQLLVYNARTVADGVPSRFSGSGSGTQYSLKINSLQPEDFGSYYCQYFWSTYTFGGGTKLEIKR
Reply text: 0.521

Inquiry: Supply Kd value. Item: Mutation 1-15 (antibody, mouse IgG2b, kappa, V domains shown) VH: QVQLQQPGAELVRPGASVKLSCKASGSSFTNYWMNWVKQRPGQGLEWIGMIHPSESETRINQKFKDKATLTVDKSSSTAYMQLSSLTAEDSAVYYCAKSGEFYTSYFDYWGQGTTLTVSS VL: DIQLTQSPASLSASVGETVTITCRGTGNVHNYLAWYQQKQGKSPQLLVYNARTVADGVPSRFSGSGSGTQYSLKINSLQPEDFGSYYCQTFWSTYTFGGGTKLEIKR
Reply text: 0.47

Inquiry: Supply Kd value. Item: Mutation 1 (antibody, mouse IgG2b, kappa, V domains shown) VH: QVQLQQPGAELVRPGASVKLSCKASGSSFTNYWMNWVKQRPGQGLEWIGMIHPSESETRINQKFKDKATLTVDKSSSTAYMQLSSLTAEDSAVYYCAKSGDFYTSYFDYWGQGTTLTVSS VL: DIQLTQSPASLSASVGETVTITCRGSGNLHNYLAWYQQKQGKSPQLLVYNARTIADGVPSRFSGSGSGTQYSLKINSLQPEDFGSYYCQSFWSTYTFGGGTKLEIKR
Reply text: 0.412

Inquiry: Supply Kd value. Item: Mutation 1-25 (antibody, mouse IgG2b, kappa, V domains shown) VH: QVQLQQPGAELVRPGASVKLSCKASGTSFTNYWMNWVKQRPGQGLEWIGMIHPSDSETRLNQKFKDKATLTVDKSSSTAYMQLSSLTAEDSAVYYCAKSGDFYTYYFDYWGQGTTLTVSS VL: DIQLTQSPASLSASVGETVTITCRGTGNLHNYLAWYQQKQGKSPQLLVYNAKTIADGVPSRFSGSGSGTQYSLKINSLQPEDFGSYYCQSFWSTYTFGGGTKLEIKR
Reply text: 0.493

Inquiry: Supply Kd value. Item: Mutation 1-41 (antibody, mouse IgG2b, kappa, V domains shown) VH: QVQLQQPGAELVRPGASVKLSCKASGYSFTNYWMNWVKQRPGQGLEWIGMIHPSESETRVNQKFKDKATLTVDKSSSTAYMQLSSLTAEDSAVYYCAKSGEFYTTYFDYWGQGTTLTVSS VL: DIQLTQSPASLSASVGETVTITCRGTGNIHNYLAWYQQKQGKSPQLLVYNARTLADGVPSRFSGSGSGTQYSLKINSLQPEDFGSYYCQSFWSTYTFGGGTKLEIKR
Reply text: 0.743

Inquiry: Supply Kd value. Item: WT 1-4 (antibody, mouse IgG2b, kappa, V domains shown) VH: QVQLQQPGAELVRPGASVKLSCKASGYSFTNYFMNWVKQRPGQGLEWIGMINPSDSETRVNQKFKDKATLTVDKSSSTAYMQLSSLTAEDSAVYYCAKSGDFYTTYWDYWGQGTTLTVSS VL: DIQLTQSPASLSASVGETVTITCRGSGNVHNYIAWYQQKQGKSPQLLVYNAKTVADGVPSRFSGSGSGTQYSLKINSLQPEDFGSYYCQYFWSSYTFGGGTKLEIKR
Reply text: 0.85

Inquiry: Supply Kd value. Item: Mutation 1-32 (antibody, mouse IgG2b, kappa, V domains shown) VH: QVQLQQPGAELVRPGASVKLSCKASGTSFTNYWMNWVKQRPGQGLEWIGMIHPSDSETRVNQKFKDKATLTVDKSSSTAYMQLSSLTAEDSAVYYCARSGDFYTTYFDYWGQGTTLTVSS VL: DIQLTQSPASLSASVGETVTITCRGTGNVHNYLAWYQQKQGKSPQLLVYNAKTIADGVPSRFSGSGSGTQYSLKINSLQPEDFGSYYCQSFWSTYTFGGGTKLEIKR
Reply text: 0.329

Inquiry: Supply Kd value. Item: Mutation 1-30 (antibody, mouse IgG2b, kappa, V domains shown) VH: QVQLQQPGAELVRPGASVKLSCKASGSSFTNYWMNWVKQRPGQGLEWIGMIHPSDSETRINQKFKDKATLTVDKSSSTAYMQLSSLTAEDSAVYYCARSGDFYTSYFDYWGQGTTLTVSS VL: DIQLTQSPASLSASVGETVTITCRGTGNIHNYLAWYQQKQGKSPQLLVYNAKTLADGVPSRFSGSGSGTQYSLKINSLQPEDFGSYYCQYFWSTYTFGGGTKLEIKR
Reply text: 0.198
